I'd be grateful if you could share measured half-life at 2 μM for these entries.
assay: PBS Stability Assay; format: physicochemical; conditions: buffer, pH 7.4, 2 μM, phosphate buffered saline pH 7.4; read-out: PBS T½
Write down the value, and be sure its unit follows.

Query block: Can you share its half-life at 2 μM? I mean this compound: COC(=O)N[C@H](C(=O)N[C@@H](Cc1ccc(C#Cc2cnc(N3CC4CCC(C3)N4C3COC3)nc2)cc1)[C@H](CN(Cc1c(F)cc(-c2ccn(C(F)F)n2)cc1F)NC(=O)[C@@H](NC(=O)OC)C(C)(C)C(F)(F)F)OC(=O)CC(C)(C)c1c(CC(=O)NCC(=O)O)cccc1OP(=O)(O)O)C(C)(C)C(F)(F)F [Example 7]
Result block: 8.72 h

Query block: Can you share its half-life at 2 μM? I mean this compound: COC(=O)N[C@H](C(=O)N[C@@H](Cc1ccc(C#Cc2cnc(N3CC4CCC(C3)N4C3COC3)nc2)cc1)[C@H](CN(Cc1c(F)cc(-c2ccn(C(F)F)n2)cc1F)NC(=O)[C@@H](NC(=O)OC)C(C)(C)C(F)(F)F)OC(=O)CC(C)(C)c1c(CC(=O)N2CC(C(=O)O)CC(C(=O)O)C2)cc(C)cc1OP(=O)(O)O)C(C)(C)C(F)(F)F (stereo partly drawn) [Example 67]
Result block: 4.32 h

Query block: Can you share its half-life at 2 μM? I mean this compound: COC(=O)N[C@H](C(=O)N[C@@H](Cc1ccc(C#Cc2cnc(N3CC4CCC(C3)N4C3COC3)nc2)cc1)[C@H](CN(Cc1c(F)cc(-c2ccn(C(F)F)n2)cc1F)NC(=O)[C@@H](NC(=O)OC)C(C)(C)C(F)(F)F)OC(=O)CC(C)(C)c1c(CC(=O)NCc2ccc(C(F)F)cc2)cc(C)cc1OP(=O)(O)O)C(C)(C)C(F)(F)F [Example 50]
Result block: 8.26 h

====

assay: Intestinal S9 Assay (dog GI S9); type: in vitro ADME; details: dog, 1.0 mg/mL S9 protein, TRIS pH 7.4, read-out: Dog GI S9 T½
I'd be grateful if you could share measured half-life at 2 μM for these entries.
Give the value in h but do not write h after it.

Query block: Can you share its half-life at 2 μM? I mean this compound: COC(=O)N[C@H](C(=O)N[C@@H](Cc1ccc(C#Cc2cnc(N3CC4CCC(C3)N4C3COC3)nc2)cc1)[C@H](CN(Cc1c(F)cc(-c2ccn(C(F)F)n2)cc1F)NC(=O)[C@@H](NC(=O)OC)C(C)(C)C(F)(F)F)OC(=O)CC(C)(C)c1c(CC(=O)N2CCC(C(=O)O)CC2C(=O)O)cc(C)cc1OP(=O)(O)O)C(C)(C)C(F)(F)F (some centres unmarked)
Result block: 3.38

Query block: Can you share its half-life at 2 μM? I mean this compound: COC(=O)N[C@H](C(=O)N[C@@H](Cc1ccc(C#Cc2cnc(N3CC4CCC(C3)N4C3COC3)nc2)cc1)[C@H](CN(Cc1c(F)cc(-c2ccn(C(F)F)n2)cc1F)NC(=O)[C@@H](NC(=O)OC)C(C)(C)C(F)(F)F)OC(=O)CC(C)(C)c1c(CC(=O)N2CC[C@@H](O)[C@H]2C(=O)O)cc(C)cc1OP(=O)(O)O)C(C)(C)C(F)(F)F
Result block: 7.19
